Test system: Respiratory syncytial virus recombinant with luciferase (RSV-Luc5) in HEp-2 cells
Experiment: microbe, parasite or virus in culture
Format: cell-based
Conditions: human respiratory syncytial virus, HEp-2, 72 h, read-out: RSV Hep2 EC50
Please assign Not fulfilled whenever EC50 is at or above 1000 nM, and Fulfilled whenever it is below.

The examples below pair each entry with its known result.
Determine whether this molecule shows EC50 lower than 1000 nM (ties excluded): `COC(=O)OC[C@H]1O[C@@](C#N)(c2ccc3c(N)ncnn23)[C@H](O)[C@@H]1O` Not fulfilled

Determine whether this molecule shows EC50 lower than 1000 nM (ties excluded): `Cc1oc(=O)oc1COC(=O)OC[C@H]1O[C@@](C#N)(c2ccc3c(N)ncnn23)[C@H](O)[C@@H]1O` Fulfilled

Determine whether this molecule shows EC50 lower than 1000 nM (ties excluded): `CCC(C)(CC)OC(=O)OC[C@H]1O[C@@](C#N)(c2ccc3c(N)ncnn23)[C@H](O)[C@@H]1O` Not fulfilled

Determine whether this molecule shows EC50 lower than 1000 nM (ties excluded): `CCCCCOC(=O)OC[C@H]1O[C@@](C#N)(c2ccc3c(N)ncnn23)[C@H](O)[C@@H]1O` Fulfilled

Determine whether this molecule shows EC50 lower than 1000 nM (ties excluded): `N#C[C@@]1(c2ccc3c(N)ncnn23)O[C@H](COC(=O)OC2CC3(CCC3)C2)[C@@H](O)[C@H]1O` Fulfilled

Query molecule follows.
Determine whether this molecule shows EC50 lower than 1000 nM (ties excluded): `N#C[C@@]1(c2ccc3c(N)ncnn23)O[C@H](COC(=O)OCC2CCCCC2)[C@@H](O)[C@H]1O` Fulfilled
